Sourced from PubChem BioAssay (NCI)

# Tested on: U251 CNS
# ASSAY_EXPLANATION: NCI tumour cell line growth inhibition, 48 h
ASSAY_READOUT: TGI

Consider the following illustrative entries.
>  <MOLECULE>
Cc1n(-c2ccccc2)c2c([n+]1Cc1ccc([N+](=O)[O-])cc1)C(=O)c1ccccc1C2=O

>  <TGI>
3.35 µM

$$$$
>  <MOLECULE>
O=C1CCCC(=O)C1C(=O)c1ccc(C(F)(F)F)cc1[N+](=O)[O-]

>  <TGI>
> 100 µM

$$$$
>  <MOLECULE>
COc1cc(C2C(C(=O)OCc3ccccc3)=C(C)NC(C)=C2C(=O)OCc2ccccc2)cc(OC)c1OC

>  <TGI>
> 100 µM

$$$$
>  <MOLECULE>
ClCCCC1COc2ccccc2O1 (centres undefined)

>  <TGI>
> 100 µM

$$$$
>  <MOLECULE>
CCCCC1=CC1(C#N)[N+](=O)[O-] (centres undefined)

>  <TGI>
> 100 µM

$$$$

Request: Give the measured TGI of COc1ccc2cc(C(=O)/C=C/c3ccco3)ccc2c1 .
Result: 97.4 µM

Request: Also need Cc1nn(-c2ccccc2)c(C)c1/C=N/N1CCN(Cc2ccccc2)CC1 , thanks.
Result: > 100 µM

Request: Also need Nc1ccc(-c2nc3ccc(Cc4ccc5nc(-c6ccc(N)cc6)oc5c4)cc3o2)cc1 , thanks.
Result: > 100 µM

Request: Also need CNC(=O)c1c(NC(=O)c2ccc(C(C)C)cc2)sc2c1CCC(=O)C2 , thanks.
Result: 1.42 µM

###

# System: SK-MEL-2 melanoma
# ASSAY_EXPLANATION: NCI tumour cell line growth inhibition, 48 h
molecules and their reported TGI

Consider the following illustrative entries.
>  <MOLECULE>
CS(=O)(=O)N(CC(=O)O)Cc1ccccc1

>  <TGI>
> 100 µM

$$$$
>  <MOLECULE>
CCCCCCCCCCCCCCC[C@@H](O)C[N+](C)(C)CCO

>  <TGI>
44.3 µM

$$$$
>  <MOLECULE>
CC(=O)O[C@]12CCCCC1C1(O)C(O)CCCC[C@H]12 (stereo partly specified)

>  <TGI>
> 100 µM

$$$$
>  <MOLECULE>
COCN1C(=O)[C@@H]2CCCN2C(=O)c2cc(Cl)ccc21

>  <TGI>
> 100 µM

$$$$
>  <MOLECULE>
COC(=O)C1=C(OC(=O)/C(=C/c2c(F)cccc2F)c2ccccc2)C(C(=O)OC)[C@@]2(O)[C@@H](C(=O)OC)[C@H](C)C[C@@H]1[C@@H]2C(=O)OC (stereo partly specified)

>  <TGI>
> 100 µM

$$$$
>  <MOLECULE>
O=C(Nc1ccc(Cl)cc1F)c1cc(Cl)ccc1O

>  <TGI>
1.72 µM

$$$$

Request: What measured TGI is associated with CCN(CC)CCOCC1CCCN2CCCCC12 (stereo unspecified) on SK-MEL-2 melanoma?
Result: > 100 µM

Request: Also need NCC(=O)NC(CO)C(=O)O (stereo unspecified) , thanks.
Result: > 100 µM

Request: Also need COc1ccc(CCN2COc3ccc4ccc(=O)oc4c3C2)cc1OC , thanks.
Result: > 100 µM

Request: Also need C=CCN(c1cc(OCc2ccccc2)c2c(c1)c(C)cn2S(=O)(=O)c1ccccc1)S(C)(=O)=O , thanks.
Result: > 100 µM

Request: Also need Nc1ccc(-c2nc3ccccc3s2)cc1I , thanks.
Result: > 100 µM

Request: Also need CN/N=C(/CC(=O)c1sc(-n2nc(-c3ccccc3)cc2-c2ccccc2)nc1C)C(=O)Nc1ccc(Cl)c(Cl)c1 , thanks.
Result: > 100 µM

Request: Also need O=C(Nc1ccc(N2C(=O)CSC2c2cccs2)cc1)c1ccc(N2C(=O)CSC2c2cccs2)cc1 (stereo unspecified) , thanks.
Result: > 100 µM

Request: Also need O=c1[nH]c(=O)n(C2OC(CO)C(O)C2O)cc1OCc1ccccc1 (stereo unspecified) , thanks.
Result: > 100 µM

Request: Also need COc1ccc(/C(Cl)=C(\CNc2ccccn2)c2ccccc2)cc1OC , thanks.
Result: > 100 µM

Request: Also need Cc1cc(O)c(O)c(Oc2cc(C)cc(O)c2O)c1 , thanks.
Result: > 100 µM
